biological target: T1, Full-length bovine RIα (bovine, UniProt P00514 1-380); test: fluorescence anisotropy, labeled peptide
T1 construct: mature; given as full-length
T1 sequence (P00514 whole entry): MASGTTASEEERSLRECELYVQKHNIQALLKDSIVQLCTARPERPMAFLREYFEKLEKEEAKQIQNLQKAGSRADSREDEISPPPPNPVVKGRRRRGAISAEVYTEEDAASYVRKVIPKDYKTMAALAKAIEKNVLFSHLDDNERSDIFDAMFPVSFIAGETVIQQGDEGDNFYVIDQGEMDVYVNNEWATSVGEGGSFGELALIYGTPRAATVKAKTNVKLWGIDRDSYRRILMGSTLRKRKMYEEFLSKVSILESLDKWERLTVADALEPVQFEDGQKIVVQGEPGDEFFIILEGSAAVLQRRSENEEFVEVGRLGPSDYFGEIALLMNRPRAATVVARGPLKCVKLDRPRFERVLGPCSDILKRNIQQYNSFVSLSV
Ends that are not written are not given here.
Answer each item with its documented pKd.
Scale note: pKd = -log10(concentration in M).

Reported pKd for VQGNTDEAQEELAWKIAKMIVSDVMQQC(tetramethylrhodamine‑5‑maleimide)-NH2 (also called unsubstituted peptide) [AKB (dual), WT (SEQ ID NO:108) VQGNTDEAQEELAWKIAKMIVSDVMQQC, rhodamine-labeled] : what is it?
7.32

Check QEEFAWKIAKMIVSDVFQQC(tetramethylrhodamine‑5‑maleimide)-NH2 [PV-47 (SEQ ID NO:105) QEEFAWKIAKMIVSDVFQQC, rhodamine-labeled] too.
7.41

Check VQGNTDEAQEELAWKIAKMIWSDVMQQC(tetramethylrhodamine‑5‑maleimide)-NH2 (also called single mutant V21W) [SEQ ID NO:111 peptide (. . . QEELAWKIAKMIWSDVMQQC), rhodamine-labeled] too.
6.92

Check Ac-DLAWKIAKMIVSDVMQQC(tetramethylrhodamine‑5‑maleimide)-NH2 [SEQ ID NO:112 peptide Ac-DLAWKIAKMIVSDVMQQC, rhodamine-labeled] too.
6.11

Check QEEFAWKIAKMIISDVFQQC(tetramethylrhodamine‑5‑maleimide)-NH2 [PV-48 (SEQ ID NO:106) QEEFAWKIAKMIISDVFQQC, rhodamine-labeled] too.
7.92
